System: OVCAR4
Assay: Euclidean distance of Cell Painting phenotypic profile (signed KS, 77 features) to DMSO centroid (dimensionless distance); 5 or 10 uM (library dependent); higher = stronger phenotypic change vs DMSO (phenoactivity)
Settings: 48 h
Counter-ions that a name gives are not always drawn.
QUANTITY NAME: Euclidean distance
Lab note: record the figure alone, no unit after it.

Known results for compounds:
COMPOUND: CO[C@@]1(NC(=O)Cc2cccs2)C(=O)N2C(C(=O)O)=C(COC(N)=O)CS[C@@H]21 [Cefoxitin]
QUANTITY NAME: Euclidean distance
ENDPOINT RESULT: 1.03
//
COMPOUND: CO[C@@]1(NC(=O)Cc2cccs2)C(=O)N2C(C(=O)O)=C(COC(N)=O)CS[C@@H]21 [Cefoxitin sodium]
QUANTITY NAME: Euclidean distance
ENDPOINT RESULT: 0.983
//
COMPOUND: N[C@@H](CCC(=O)O)C(=O)O [(S)-Glutamic acid]
QUANTITY NAME: Euclidean distance
ENDPOINT RESULT: 1.57
//
COMPOUND: CNCC(=O)O
QUANTITY NAME: Euclidean distance
ENDPOINT RESULT: 1.75
//
COMPOUND: COc1ccccc1N1CCN(CCN(C(=O)C2CCCCC2)c2ccccn2)CC1
QUANTITY NAME: Euclidean distance
ENDPOINT RESULT: 4.14

## Task Tell us which Euclidean distance value is on record for CC(=O)Oc1cc2c(s1)CCN(C(C(=O)C1CC1)c1ccccc1F)C2 (stereo not drawn) [Prasugrel Hydrochloride]
## Result 0.803

## Task Tell us which Euclidean distance value is on record for C[C@@H]1CCC[C@H](C)N1NC(=O)c1ccc(Cl)c(S(N)(=O)=O)c1 [Clopamide]
## Result 1.14

## Task Tell us which Euclidean distance value is on record for CS(=O)(=O)Nc1ccc([N+](=O)[O-])cc1Oc1ccccc1 [Nimesulide]
## Result 1.8

## Task Tell us which Euclidean distance value is on record for CC(C)c1cc(-c2n[nH]c(=O)n2-c2ccc3c(ccn3C)c2)c(O)cc1O [Ganetespib (STA-9090)]
## Result 2.93

## Task Tell us which Euclidean distance value is on record for CNCc1ccc(-c2[nH]c3cc(F)cc4c3c2CCNC4=O)cc1
## Result 1.23

## Task Tell us which Euclidean distance value is on record for CC(=O)Nc1cccc(-n2c(=O)n(C3CC3)c(=O)c3c(Nc4ccc(I)cc4F)n(C)c(=O)c(C)c32)c1
## Result 1.94

====

Tested on: 786-O
Assay: Euclidean distance of Cell Painting phenotypic profile (signed KS, 77 features) to DMSO centroid (dimensionless distance); 5 or 10 uM (library dependent); higher = stronger phenotypic change vs DMSO (phenoactivity)
Details: 48 h
Where a name gives a salt, the structure may show the parent alone.
QUANTITY NAME: Euclidean distance
Lab note: record the figure alone, no unit after it.

MOLECULE: CNCCCC1c2ccccc2C=Cc2ccccc21 [Protriptyline hydrochloride]
QUANTITY NAME: Euclidean distance
ENDPOINT RESULT: 1.15

## Task Tell us which Euclidean distance value is on record for C=CC(=O)N1C[C@H](Nc2ncnc3[nH]ccc23)CC[C@@H]1C
## Result 1.27

## Task Tell us which Euclidean distance value is on record for O=C(Nc1cnn2ccc(N3CCC[C@@H]3c3cc(F)ccc3F)nc12)N1CC[C@H](O)C1 [Larotrectinib (LOXO-101) sulfate]
## Result 0.597

## Task Tell us which Euclidean distance value is on record for Cc1c(O)cccc1C(=O)N[C@@H](CSc1ccccc1)[C@H](O)CN1C[C@H]2CCCC[C@H]2C[C@H]1C(=O)NC(C)(C)C [Nelfinavir Mesylate]
## Result 1.88

## Task Tell us which Euclidean distance value is on record for COc1cc(N)c(Cl)cc1C(=O)NC1CCN(CCCOc2ccc(F)cc2)CC1OC (configuration not stated) [Cisapride hydrate]
## Result 0.963

## Task Tell us which Euclidean distance value is on record for Cc1c(-c2ccnn2C)cc(C(=O)NCc2ccc(S(C)(=O)=O)cn2)c(=O)n1-c1cccc(C(F)(F)F)c1
## Result 1.01

## Task Tell us which Euclidean distance value is on record for C=C1C(=O)O[C@H]2[C@H]1CC/C(C)=C/CC[C@@]1(C)O[C@@H]21 [(-)-Parthenolide]
## Result 3.29

## Task Tell us which Euclidean distance value is on record for COc1cccc2c1C(=O)c1c(O)c3c(c(O)c1C2=O)C[C@@](O)(C(=O)CO)C[C@@H]3O[C@H]1C[C@H](N)[C@@H](O)[C@H](C)O1 [Epirubicin HCl]
## Result 3.54
